Field: IC50 for B2R-GFP relative to unlabeled BK (fold greater IC50 / lower affinity). Provide a value for each of the molecules that follow.
Target: rabbit B2R-green fluorescent protein (B2R-GFP) (Oryctolagus cuniculus, UniProt Q28642)
Construct: expressed in transfected cells
Sequence (Q28642 1-367): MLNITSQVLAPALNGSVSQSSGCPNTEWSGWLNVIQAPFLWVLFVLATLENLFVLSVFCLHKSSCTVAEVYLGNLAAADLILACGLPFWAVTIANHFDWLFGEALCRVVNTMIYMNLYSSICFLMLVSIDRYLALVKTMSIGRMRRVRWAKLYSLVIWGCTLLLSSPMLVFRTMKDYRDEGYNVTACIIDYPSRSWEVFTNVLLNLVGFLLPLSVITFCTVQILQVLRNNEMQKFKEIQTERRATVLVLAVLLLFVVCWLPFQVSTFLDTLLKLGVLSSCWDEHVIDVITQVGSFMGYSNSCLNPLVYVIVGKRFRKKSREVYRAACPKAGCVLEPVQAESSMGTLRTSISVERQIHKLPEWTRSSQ
Experiment: [3H]BK binding competition to B2R-GFP stably expressed in intact HEK 293 cells
Conditions: [3H]BK binding competition, vs BK
Procedure: Affinity for the B2R was evaluated using a radioligand binding competition assay performed at 0 °C in the presence of peptidase inhibitors that included captopril ([Houle et al., 2000]). […] Results are presented as mean ± SEM. Radioligand binding data were fitted by non-linear regression to a one-site competition equation using a least-square method (Prism 4.0, GraphPad Software Inc., San Diego, CA, USA) and IC50 values calculated from this procedure. […]
Peptide text beside a SMILES is read from it.
One number for each entry, in fold.

Previously resolved entries follow.
INSERT INTO assay_data (molecule, unit_spec, observed_result) VALUES
  ('N=C(N)NCCC[C@H](NC(=O)[C@H](Cc1ccccc1)NC(=O)[C@@H]1CCCN1C(=O)[C@H](CO)NC(=O)[C@H](Cc1ccccc1)NC(=O)CNC(=O)[C@@H]1CCCN1C(=O)[C@@H]1CCCN1C(=O)[C@@H](N)CCCNC(=N)N)C(=O)N[C@@H](CO)C(=O)N[C@@H](Cc1ccc(O)cc1)C(=O)O [BK-Ser-Tyr] (H-RPPGFSPFRSY-OH; N-terminus and C-terminus assumed)', 'fold', 102),
  ('N=C(N)NCCC[C@H](NC(=O)[C@H](CCCNC(=N)N)NC(=O)[C@H](Cc1ccccc1)NC(=O)[C@@H]1CCCN1C(=O)[C@H](CO)NC(=O)[C@H](Cc1ccccc1)NC(=O)CNC(=O)[C@@H]1CCCN1C(=O)[C@@H]1CCCN1C(=O)[C@@H](N)CCCNC(=N)N)C(=O)O [BK-Arg] (H-RPPGFSPFRR-OH; N-terminus and C-terminus assumed)', 'fold', 29);

Turning now to a further molecule:
Please report the recorded IC50 for B2R-GFP relative to unlabeled BK (fold greater IC50 / lower affinity) for N=C(N)NCCC[C@H](NC(=O)[C@H](Cc1ccccc1)NC(=O)[C@@H]1CCCN1C(=O)[C@H](CO)NC(=O)[C@H](Cc1ccccc1)NC(=O)CNC(=O)[C@@H]1CCCN1C(=O)[C@@H]1CCCN1C(=O)[C@H](CCCNC(=N)N)NC(=O)[C@@H]1CCCN1C(=O)[C@@H](N)CCCNC(=N)N)C(=O)O [Arg-Pro-BK] (H-RPRPPGFSPFR-OH; N-terminus and C-terminus assumed) .
1.6

---

Kindly state Control (DMSO vehicle) log(EC50) ± SE for each of the entries shown.
target: BK B2R (human umbilical vein rings) (Homo sapiens); construct: from tissue; host or cells: human umbilical vein rings; assay: Human isolated umbilical vein contractility assay; format: cell-based; conditions: log of contractile EC50; no peptidase inhibitor, paired tissues
Sequence (P30411 whole entry): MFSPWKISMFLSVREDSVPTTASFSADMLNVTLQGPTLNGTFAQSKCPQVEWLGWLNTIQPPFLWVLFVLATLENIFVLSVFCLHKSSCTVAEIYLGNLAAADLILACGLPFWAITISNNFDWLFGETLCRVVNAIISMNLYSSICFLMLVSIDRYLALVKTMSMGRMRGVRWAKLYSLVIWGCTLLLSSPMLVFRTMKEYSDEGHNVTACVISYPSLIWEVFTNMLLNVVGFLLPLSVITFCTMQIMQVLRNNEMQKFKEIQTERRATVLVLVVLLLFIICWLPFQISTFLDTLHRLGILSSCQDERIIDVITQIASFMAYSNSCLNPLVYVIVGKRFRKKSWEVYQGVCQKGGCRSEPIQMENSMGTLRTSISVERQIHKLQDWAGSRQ
Peptide text beside a SMILES is read from it.

Below, 2 compounds whose answers are already recorded.
INSERT INTO results (compound, observed_result) VALUES
  ('N=C(N)NCCC[C@H](NC(=O)[C@H](CCCNC(=N)N)NC(=O)[C@H](Cc1ccccc1)NC(=O)[C@@H]1CCCN1C(=O)[C@H](CO)NC(=O)[C@H](Cc1ccccc1)NC(=O)CNC(=O)[C@@H]1CCCN1C(=O)[C@@H]1CCCN1C(=O)[C@@H](N)CCCNC(=N)N)C(=O)O [BK-Arg] (H-RPPGFSPFRR-OH; N-terminus and C-terminus assumed)', '-6.67 ± 0.08'),
  ('N=C(N)NCCC[C@H](NC(=O)[C@H](Cc1ccccc1)NC(=O)[C@@H]1CCCN1C(=O)[C@H](CO)NC(=O)[C@H](Cc1ccccc1)NC(=O)CNC(=O)[C@@H]1CCCN1C(=O)[C@@H]1CCCN1C(=O)[C@H](CCCNC(=N)N)NC(=O)[C@@H]1CCCN1C(=O)[C@@H](N)CCCNC(=N)N)C(=O)O [Arg-Pro-BK] (H-RPRPPGFSPFR-OH; N-terminus and C-terminus assumed)', '-7.39 ± 0.06');

I'm hoping you can list Control (DMSO vehicle) log(EC50) ± SE for every compound here, please.
1. C[C@H](NC(=O)[C@H](CCCNC(=N)N)NC(=O)[C@H](Cc1ccccc1)NC(=O)[C@@H]1CCCN1C(=O)[C@H](CO)NC(=O)[C@H](Cc1ccccc1)NC(=O)CNC(=O)[C@@H]1CCCN1C(=O)[C@@H]1CCCN1C(=O)[C@@H](N)CCCNC(=N)N)C(=O)N1CCC[C@H]1C(=O)O [BK-Ala-Pro] (H-RPPGFSPFRAP-OH; N-terminus and C-terminus assumed)
2. CC(C)C[C@H](NC(=O)[C@H](Cc1c[nH]cn1)NC(=O)[C@H](CCCNC(=N)N)NC(=O)[C@H](Cc1ccccc1)NC(=O)[C@@H]1CCCN1C(=O)[C@H](CO)NC(=O)[C@H](Cc1ccccc1)NC(=O)CNC(=O)[C@@H]1CCCN1C(=O)[C@@H]1CCCN1C(=O)[C@@H](N)CCCNC(=N)N)C(=O)O [BK-His-Leu] (H-RPPGFSPFRHL-OH; N-terminus and C-terminus assumed)

1. -6.59 ± 0.07
2. -6.61 ± 0.11

Which Control (DMSO vehicle) log(EC50) ± SE value belongs to N=C(N)NCCC[C@H](NC(=O)[C@H](Cc1ccccc1)NC(=O)[C@@H]1CCCN1C(=O)[C@H](CO)NC(=O)[C@H](Cc1ccccc1)NC(=O)CNC(=O)[C@@H]1CCCN1C(=O)[C@@H]1CCCN1C(=O)[C@@H](N)CCCNC(=N)N)C(=O)N[C@@H](CO)C(=O)N[C@@H](Cc1ccc(O)cc1)C(=O)O [BK-Ser-Tyr] (H-RPPGFSPFRSY-OH; N-terminus and C-terminus assumed) ?
-6.90 ± 0.09

---

biological target: rabbit B2R-green fluorescent protein (B2R-GFP) (Oryctolagus cuniculus, UniProt Q28642); construct: expressed in transfected cells; experiment: [3H]BK binding competition to B2R-GFP stably expressed in intact HEK 293 cells; conditions: [3H]BK binding competition, vs BK
Peptide text beside a SMILES is read from it.
Observation type: IC50 for B2R-GFP relative to unlabeled BK (fold greater IC50 / lower affinity) (fold)
One number for each entry, in fold.

Looking for the measured IC50 for B2R-GFP relative to unlabeled BK (fold greater IC50 / lower affinity) of CC(C)C[C@H](NC(=O)[C@H](Cc1c[nH]cn1)NC(=O)[C@H](CCCNC(=N)N)NC(=O)[C@H](Cc1ccccc1)NC(=O)[C@@H]1CCCN1C(=O)[C@H](CO)NC(=O)[C@H](Cc1ccccc1)NC(=O)CNC(=O)[C@@H]1CCCN1C(=O)[C@@H]1CCCN1C(=O)[C@@H](N)CCCNC(=N)N)C(=O)O [BK-His-Leu] (H-RPPGFSPFRHL-OH; N-terminus and C-terminus assumed) , can you help?
363

---

target: human B1R (B1R-FLAG) (Homo sapiens, UniProt P46663); construct: FLAG; expressed in transfected cells; assay: [3H]Lys-des-Arg9-BK binding competition to B1R-FLAG transiently expressed in HEK 293a cells; conditions: log of IC50; 1 nM [3H]Lys-des-Arg9-BK, HEK 293a cells
Sequence (P46663 whole entry): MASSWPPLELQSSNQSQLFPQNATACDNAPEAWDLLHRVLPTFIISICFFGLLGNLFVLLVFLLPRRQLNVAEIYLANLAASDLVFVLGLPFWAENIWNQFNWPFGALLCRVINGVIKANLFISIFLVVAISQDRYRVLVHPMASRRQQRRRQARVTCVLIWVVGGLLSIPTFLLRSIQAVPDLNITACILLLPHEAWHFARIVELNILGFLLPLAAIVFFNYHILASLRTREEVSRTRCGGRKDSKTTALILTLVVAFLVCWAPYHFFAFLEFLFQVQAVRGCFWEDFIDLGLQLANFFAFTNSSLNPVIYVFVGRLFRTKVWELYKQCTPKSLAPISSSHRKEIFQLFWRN
Peptide text beside a SMILES is read from it.
I'd be grateful if you could share measured [3H]Lys-des-Arg9-BK binding to B1R-FLAG log(IC50) ± SE for these entries.

INSERT INTO measurements (compound, observed_result) VALUES
  ('C[C@H](NC(=O)[C@H](CCCNC(=N)N)NC(=O)[C@H](Cc1ccccc1)NC(=O)[C@@H]1CCCN1C(=O)[C@H](CO)NC(=O)[C@H](Cc1ccccc1)NC(=O)CNC(=O)[C@@H]1CCCN1C(=O)[C@@H]1CCCN1C(=O)[C@@H](N)CCCNC(=N)N)C(=O)N1CCC[C@H]1C(=O)O [BK-Ala-Pro] (H-RPPGFSPFRAP-OH; N-terminus and C-terminus assumed)', '>-5');

Hey, can you go through the list below and give me [3H]Lys-des-Arg9-BK binding to B1R-FLAG log(IC50) ± SE for every item?
1. CC(C)C[C@H](NC(=O)[C@H](Cc1c[nH]cn1)NC(=O)[C@H](CCCNC(=N)N)NC(=O)[C@H](Cc1ccccc1)NC(=O)[C@@H]1CCCN1C(=O)[C@H](CO)NC(=O)[C@H](Cc1ccccc1)NC(=O)CNC(=O)[C@@H]1CCCN1C(=O)[C@@H]1CCCN1C(=O)[C@@H](N)CCCNC(=N)N)C(=O)O [BK-His-Leu] (H-RPPGFSPFRHL-OH; N-terminus and C-terminus assumed)
2. N=C(N)NCCC[C@H](NC(=O)[C@H](Cc1ccccc1)NC(=O)[C@@H]1CCCN1C(=O)[C@H](CO)NC(=O)[C@H](Cc1ccccc1)NC(=O)CNC(=O)[C@@H]1CCCN1C(=O)[C@@H]1CCCN1C(=O)[C@@H](N)CCCNC(=N)N)C(=O)N[C@@H](CO)C(=O)N[C@@H](Cc1ccc(O)cc1)C(=O)O [BK-Ser-Tyr] (H-RPPGFSPFRSY-OH; N-terminus and C-terminus assumed)

[">-5", ">-5"]

Return reported [3H]Lys-des-Arg9-BK binding to B1R-FLAG log(IC50) ± SE; argument: N=C(N)NCCC[C@H](NC(=O)[C@H](CCCNC(=N)N)NC(=O)[C@H](Cc1ccccc1)NC(=O)[C@@H]1CCCN1C(=O)[C@H](CO)NC(=O)[C@H](Cc1ccccc1)NC(=O)CNC(=O)[C@@H]1CCCN1C(=O)[C@@H]1CCCN1C(=O)[C@@H](N)CCCNC(=N)N)C(=O)O [BK-Arg] (H-RPPGFSPFRR-OH; N-terminus and C-terminus assumed)
-5.12 ± 0.10
